System: Mycobacterium tuberculosis
assay_explanation: Antimycobacterial activity against isoniazid, rifampicin, ofloxacin and kanamycin-resistant Mycobacterium tuberculosis H37Rv ATCC 27294 clinical isolate after 28 days by two-fold serial dilution assay in presence of […] piperine efflux pump inhibitor
Assay type: functional
assay_conditions: H37Rv ATCC 27294, 672 h
Friendly reminder: MIC below 20 µM is fulfilled, at or above is not fulfilled.

{"columns": ["molecule", "class_assignment"],
 "data": [
  ["O=C(Cn1cnc2ccccc2c1=O)NCc1ccco1", "fulfilled"],
  ["O=C(Cn1cnc2ccc(Cl)cc2c1=O)NCc1ccco1", "not fulfilled"]
]}

Q: Is MIC strictly under 20 µM for the entry `O=C(Cn1cnc2ccc(Cl)cc2c1=O)NCc1cccs1` ?
Ans: not fulfilled

Q: For this molecule, is MIC lower than 20 µM? `Cc1nc2ccc(Cl)cc2c(=O)n1CC(=O)NCc1ccco1`
Ans: fulfilled

Q: Threshold test, MIC < 20 µM: CC[C@@H](CO)NCCN[C@@H](CC)CO [ETHAMBUTOL]
Ans: not fulfilled

Q: Please indicate whether the reported MIC of `O=C(Cn1cnc2ccccc2c1=O)NCc1nc2ccc([N+](=O)[O-])cc2s1` is strictly below 20 µM.
Ans: fulfilled

Q: Criterion: MIC strictly below 20 µM. Is it met by CO[C@H]1/C=C/O[C@@]2(C)Oc3c(C)c(O)c4c(O)c(c(/C=N/N5CCN(C)CC5)c(O)c4c3C2=O)NC(=O)/C(C)=C\C=C\[C@H](C)[C@H](O)[C@@H](C)[C@@H](O)[C@@H](C)[C@H](OC(C)=O)[C@@H]1C [RIFAMPIN] ?
Ans: not fulfilled

Q: Hello, I'm reviewing records and need to know if MIC of NNC(=O)c1ccncc1 [ISONIAZID] is below 20 µM. Could you check?
Ans: not fulfilled

Q: Would you kindly verify if MIC of `O=C(Cn1cnc2ccc(Cl)cc2c1=O)Nc1ccccc1` is strictly less than 20 µM?
Ans: not fulfilled

Q: Regarding `Cc1nc2ccc(Cl)cc2c(=O)n1CC(=O)Nc1ccccc1` , kindly confirm whether its MIC is beneath 20 µM.
Ans: fulfilled

Q: Quick check: MIC of `O=C(Cn1cnc2ccccc2c1=O)NCc1cccs1` under 20 µM?
Ans: not fulfilled

Q: Say whether its MIC is strictly beneath 20 µM. Entry: `O=C(Cn1cnc2ccccc2c1=O)Nc1ccccc1`
Ans: not fulfilled

Q: A record lists `O=C(Cn1cnc2ccc(Cl)cc2c1=O)Nc1cc(C(F)(F)F)ccc1Cl` . Is its MIC below 20 µM?
Ans: not fulfilled

Q: Answer whether the molecule `O=C(Cn1cnc2ccccc2c1=O)Nc1cc(C(F)(F)F)ccc1Cl` has MIC strictly less than 20 µM
Ans: fulfilled

Hello, the source for this data is ChEMBL document CHEMBL3352048, in case you need it.
